# assay_method_text: chemical genetic growth profiling, strain panel (AID 1159580);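 further: tested at 20 µM; growth read once vehicle control cultures reached saturation at 30 °C; 1 = growth at the plate median or of vehicle wells; lower values mean less growth of the strain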
# condition_context: S. cerevisiae deletion strains, growth OD, locus YER155C, strain BEM2, active compounds read low
The whole screen tested about 5,500 compounds, of which about 2,000 (36%) were called active. About 18% were inconclusive and are not listed. The list shows a part of the results.
measured_attribute: normalized growth
Answer with the value's number alone.

// normalized growth lookup, key: O=c1c(O)c(-c2ccccc2)oc2ccccc12
0.999

Name the reported normalized growth value associated with the molecule N[C@@H](C(=O)N[C@@H]1C(=O)N2C(C(=O)O)=C(Cl)CS[C@H]12)c1ccccc1
1

Recorded normalized growth of O=c1c(O)c(-c2ccccc2)oc2cc(O)ccc12 , please.
0.627

Look up normalized growth: CCCC(=O)Nc1ccc(OCC(O)CNC(C)C)c(C(C)=O)c1 (stereo unspecified)
1.02

What value of normalized growth has been reported for the following molecule? O[C@H]1[C@H](O)[C@@H](O)C2OC[C@H]1O2
0.988

What value of normalized growth has been recorded for this entry: COC(=O)C(O)[C@H]1C(C)(C)[C@@H](OC(C)=O)[C@@H]2CC3=C4CC(=O)O[C@@H](c5ccoc5)[C@]4(C)CCC3[C@@]1(C)C2=O (stereo partly specified)
1.01

Form field: reported normalized growth of CC(=O)Oc1c(C)c(C)c2c(c1C)CCC(C)(CCCC(C)CCCC(C)CCCC(C)C)O2 (stereo unspecified)
1.01

Form field: reported normalized growth of COc1cc2c(cc1OC)C(C)NCC2 (stereo unspecified)
0.99

Data request, read-out normalized growth, for O=C(O)CC[N+](=O)[O-]
0.99

Suppose we examine the molecule CC(C)c1cc2c(c(O)c1O)[C@@]1(C(=O)O)CCCC(C)(C)C1CC2 (stereo partly specified) ; what normalized growth value has been reported?
1.04

Entry O=c1c(O)c(-c2ccccc2)oc2ccc3occc3c12 has what normalized growth?
0.807

---

# assay_method_text: chemical genetic growth profiling, strain panel (AID 1159580);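 further: tested at 20 µM; growth read once vehicle control cultures reached saturation at 30 °C; 1 = growth at the plate median or of vehicle wells; lower values mean less growth of the strain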
# condition_context: S. cerevisiae deletion strains, growth OD, locus YNL307C, strain MCK1, active compounds read low
About 2,000 (36%) of roughly 5,500 compounds were called active. Not shown: some 18% with an inconclusive outcome. This is one part of the list.
measured_attribute: normalized growth

What measured normalized growth goes with O=C1c2ccccc2C(=O)c2ccccc21 ?
0.971 (inactive)

Please look up its normalized growth: C[C@]12CC[C@@H](O)C[C@H]1CCc1ccccc12
1 (inactive)

Request the reported normalized growth associated with CC[C@H]1OC(=O)[C@H](C)[C@@H](O[C@H]2C[C@@](C)(OC)[C@@H](O)[C@H](C)O2)[C@H](C)[C@@H](O[C@@H]2O[C@H](C)C[C@H](N(C)C)[C@H]2O)[C@](C)(O)C[C@@H](C)/C(=N/OCOCCOC)[C@H](C)[C@@H](O)[C@]1(C)O
1 (inactive)

Find the recorded normalized growth belonging to C[C@]12[C@H](O)CC3C(CC[C@@H]4C[C@@H](O)CC[C@]34C)[C@@]1(O)CC[C@@H]2C1=CC(=O)OC1 (stereo not given in full) and report it.
0.977 (inactive)

Data request, read-out normalized growth, for CC(C)[C@@H]1CC[C@@H](C)C[C@H]1OC(=O)c1ccccc1
1.01 (inactive)

---

# assay_method_text: chemical genetic growth profiling, strain panel (AID 1159580);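 further: tested at 20 µM; growth read once vehicle control cultures reached saturation at 30 °C; 1 = growth at the plate median or of vehicle wells; lower values mean less growth of the strain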
# condition_context: S. cerevisiae deletion strains, growth OD, locus YPL240C, strain hsp82, active compounds read low
About 2,000 (36%) of roughly 5,500 compounds were called active. Inconclusive results (about 18%) are left out. Some of the results follow.
measured_attribute: normalized growth
Lab note: jot down the number only; don't add units.

I am curious: what normalized growth value has been reported for COCC1=C(C(=O)OC(C)OC(=O)OC(C)C)N2C(=O)[C@@H](NC(=O)/C(=N\OC)c3csc(N)n3)[C@H]2SC1 (some centres not stated) ?
0.99

Item Cc1cc2nc3c(=O)[nH]c(=O)nc-3n(CC(O)C(O)C(O)CO)c2cc1C (configuration not stated) has what recorded normalized growth?
0.996

Can you look up the measured normalized growth of CC(=O)Oc1c(C)c(C)c2c(c1C)CCC(C)(CCCC(C)CCCC(C)CCCC(C)C)O2 (configuration not stated) for me?
0.995

Would you kindly share the measured normalized growth for Cn1c(=O)c2c(ncn2CCO)n(C)c1=O ?
0.985

I am curious: what normalized growth value has been reported for COc1cc2c(cc1OC)C(C)NCC2 (configuration not stated) ?
0.964

Consider the compound shown here: CCC1(C2=NCCN2)Cc2ccccc2O1 (configuration not stated) What is its recorded normalized growth?
0.991

Value lookup for normalized growth; key = CON
1

For the compound shown here, NC(Cc1ccc(Cl)cc1)C(=O)O (configuration not stated) , give the reported normalized growth.
1

// lookup normalized growth for COc1ccccc1OCC(O)COC(N)=O (configuration not stated)
0.996

What does the data say about its normalized growth? Entry: CC(=O)Nc1c(I)cc(I)c(C(=O)O)c1I
0.972

Requested field: normalized growth. Item: O=C(Nc1ccc([N+](=O)[O-])cc1Cl)c1cc(Cl)ccc1O
1.01

Given Cn1cnc2c1c(=O)[nH]c(=O)n2C , state its recorded normalized growth.
0.989

---

# assay_method_text: chemical genetic growth profiling, strain panel (AID 1159580);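 further: tested at 20 µM; growth read once vehicle control cultures reached saturation at 30 °C; 1 = growth at the plate median or of vehicle wells; lower values mean less growth of the strain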
# condition_context: S. cerevisiae deletion strains, growth OD, locus YOR069W, strain VPS5, active compounds read low
In all, about 5,500 compounds went through this assay and about 2,000 (36%) were called active. Roughly 18% stayed inconclusive and do not appear here. The list shows a part of the results.
Would you mind telling me the reported normalized growth of each entry?
Write the number on its own, no unit after it.

Field request: normalized growth | item: CNC(=O)Oc1ccccc1OC(C)C
1.01

Name the recorded normalized growth for CC[C@H]1OC(=O)[C@H](C)[C@@H](O[C@H]2C[C@@](C)(OC)[C@@H](O)[C@H](C)O2)[C@H](C)[C@@H](O[C@@H]2O[C@H](C)C[C@H](N(C)C)[C@H]2O)[C@](C)(O)C[C@@H](C)/C(=N/OCOCCOC)[C@H](C)[C@@H](O)[C@]1(C)O .
1.01

I'd like to know its normalized growth. The compound in question is CC(NC(C)(C)C)C(=O)c1cccc(Cl)c1 (stereo not drawn)
1.01

Could you tell me which normalized growth is on file for COC1=CC23CCCN2CCc2cc4c(cc2C3C1O)OCO4 (stereo not drawn) ?
1.01

Fill in the blank: the reported normalized growth of CN1CCC[C@H]1c1cccnc1 is ____.
0.988

Which measured normalized growth value corresponds to COC(=O)c1cc(OC)c(=O)c2c(OC)c(OC)ccc2c1 ?
1

What value of normalized growth has been reported for the following compound? CC(=O)Nc1c(I)cc(I)c(C(=O)O)c1I
0.988

Please give the measured normalized growth for this compound: Cc1ccc(O)c(C(CCN(C(C)C)C(C)C)c2ccccc2)c1 (stereo not drawn)
1.01

Fill blank: measured normalized growth of the compound COP(=O)(NC(C)=O)SC (stereo not drawn) is ____.
1.01

What value of measured normalized growth is listed for COC(=O)C[C@H]1C(C)(C)[C@@H](OC(C)=O)[C@@H]2CC3=C4CC(=O)O[C@@H](c5ccoc5)[C@]4(C)CCC3[C@@]1(C)C2=O (stereo partly drawn) ?
1

GET /values?readout=normalized growth&item= CC(=O)OC1CCC2(O)CC1(C)CCC1C2CC1(C)C (stereo not drawn)
0.983

What value of normalized growth has been reported for the following compound? COc1cc([C@@H]2c3cc4c(cc3[C@H](O)[C@H]3COC(=O)[C@H]23)OCO4)cc(OC)c1OC
1.01

What does the record list as normalized growth for CC1=C(C(=O)O)N2C(=O)[C@@H](NC(=O)[C@@H](N)c3ccc(O)cc3)[C@H]2SC1 ?
0.987

Looking for the measured normalized growth of C=C(C)C1Cc2c(ccc3c(=O)c4c(oc23)COc2cc(OC)c(OC)cc2-4)O1 (stereo not drawn) , can you help?
0.996

Entry CC(=O)CCCCn1c(=O)c2c(ncn2C)n(C)c1=O has what normalized growth?
1.01

Please look up its normalized growth: CC(=O)Oc1c(C)c(C)c2c(c1C)CCC(C)(CCCC(C)CCCC(C)CCCC(C)C)O2 (stereo not drawn)
1.01

Tell me the measured normalized growth of CCCCCC/C=C\CCCCCCCc1cccc(O)c1C(=O)O , please.
0.995

What measured normalized growth goes with CCCN(CCC)c1c([N+](=O)[O-])cc(C(F)(F)F)cc1[N+](=O)[O-] ?
0.998

# normalized growth lookup, item O=C(O)CC[N+](=O)[O-]
0.99

normalized growth for N[C@@H](C(=O)N[C@@H]1C(=O)N2C(C(=O)O)=C(Cl)CS[C@H]12)c1ccccc1 ?
0.999

Requested read-out: normalized growth. Entry: CC(C)=CCC/C(C)=C/CO
1.01

Fill in: normalized growth of CC1(C)CC23C(=O)CCC(O)C2(C)CCC13 (stereo not drawn) is ___
1.01

Sample CC(C)OC(=O)Nc1cccc(Cl)c1 — what was its normalized growth?
0.996

Look up normalized growth: CC(C)[C@@H]1CC[C@@H](C)C[C@H]1OC(=O)c1ccccc1
1.01

Field request: normalized growth | item: COc1ccc([C@@H](C)C(=O)c2ccc(O)cc2O)cc1
0.974

Query: normalized growth; subject: O=C(CCc1ccc(O)cc1)c1c(O)cc(O)cc1O
0.995

normalized growth for O=C(N[C@@H](CO)[C@H](O)c1ccc([N+](=O)[O-])cc1)C(Cl)Cl ?
1

For the compound shown here, COc1ccc(-c2c(O)c3c(OC)c4c(cc3oc2=O)OC(C)(C)C=C4)cc1 , give the reported normalized growth.
0.952

State the recorded normalized growth for this entry: COc1cc(Cc2cnc(N)nc2N)cc(OC)c1OC
0.993

Given COc1cc(OC)c2c(OC)c(-c3ccc4c(c3)OCO4)c(=O)oc2c1 , state its recorded normalized growth.
0.988

Dear colleague, I am looking for the recorded normalized growth of the following compound: O=c1c(O)cccc2cc(O)c(O)c(O)c12
0.775

Requested field: normalized growth. Item: C[N+]1(C)CCCC(OC(=O)C(O)(c2ccccc2)c2ccccc2)C1 (stereo not drawn)
1

So what's the measured normalized growth for this one? Cn1c(=O)c2c(ncn2CCCl)n(C)c1=O
1

If you can, please state the reported normalized growth value of O=C1NS(=O)(=O)c2ccccc21 .
1.01

Looking for the measured normalized growth of CN1C(=O)CC[C@H]1c1cccnc1 , can you help?
0.997

Could you tell me which normalized growth is on file for COc1ccc(-c2c(OC)c3c(OC)c4c(cc3oc2=O)OC(C)(C)C=C4)cc1 ?
0.993

For the compound CNC(C)[C@@H]1CC[C@@H](N)[C@@H](OC2[C@@H](N)C[C@@H](N)[C@H](OC3OC[C@](C)(O)[C@H](NC)[C@H]3O)[C@H]2O)O1 (stereo partly drawn) , what normalized growth is on record?
1.01

I would be grateful if you could share the reported normalized growth for CCC[C@@H]1C[C@@H](C(=O)N[C@H]([C@H]2O[C@H](SC)[C@H](O)[C@@H](O)[C@H]2O)[C@H](C)O)N(C)C1 .
0.99

What value of normalized growth has been recorded for this entry: CCCCN(CC)c1c([N+](=O)[O-])cc(C(F)(F)F)cc1[N+](=O)[O-]
1.01

What value of measured normalized growth is listed for C=C(C)C1Cc2c(ccc(C(=O)O)c2O)O1 (stereo not drawn) ?
0.99

I would be grateful if you could share the reported normalized growth for CC(C)N1C(=O)c2ccccc2NS1(=O)=O .
0.989

Param item = O=C(O)CCC(=O)OC[C@@H](NC(=O)C(Cl)Cl)[C@H](O)c1ccc([N+](=O)[O-])cc1 ; retrieve measured normalized growth.
0.967

normalized growth lookup needed for COc1cc(O)ccc1C(C)=O , thanks.
0.999

The measurements presented in this section are drawn from PubChem BioAssay AID1159580.
